- TEST TARGET: T1, Rat Serum Albumin (rat, UniProt P02770 25-608)
- T1 construct: mature; purified protein on CM5 chips for BIAcore; also called RSA; rat SA
- T1 sequence (P02770 25-608): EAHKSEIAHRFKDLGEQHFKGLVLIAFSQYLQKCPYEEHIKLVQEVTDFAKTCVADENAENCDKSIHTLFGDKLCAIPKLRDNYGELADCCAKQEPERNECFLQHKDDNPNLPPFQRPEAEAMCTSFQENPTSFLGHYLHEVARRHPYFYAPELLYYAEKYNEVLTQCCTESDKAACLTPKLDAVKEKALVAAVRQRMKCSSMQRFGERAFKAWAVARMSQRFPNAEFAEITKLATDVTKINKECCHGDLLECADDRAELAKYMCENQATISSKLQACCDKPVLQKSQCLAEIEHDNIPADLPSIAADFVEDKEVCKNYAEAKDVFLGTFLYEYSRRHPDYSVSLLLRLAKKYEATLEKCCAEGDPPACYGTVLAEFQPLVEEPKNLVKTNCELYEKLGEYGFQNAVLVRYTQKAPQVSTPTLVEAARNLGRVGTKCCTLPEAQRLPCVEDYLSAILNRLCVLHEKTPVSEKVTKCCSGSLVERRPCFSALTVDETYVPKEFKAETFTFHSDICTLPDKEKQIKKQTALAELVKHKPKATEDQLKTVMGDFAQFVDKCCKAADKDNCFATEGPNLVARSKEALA
- EXPERIMENTAL PROTOCOL: BIAcore SPR;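 further: purified dAbs run at 1 µM, 500 nM and 50 nM over human, cynomolgus, mouse and rat serum albumin in BIAcore binding measurements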
pKd: −log10 of the molar value.
OUTCOME MEASURE: pKd

1. DOM7h-14-18 (other, Vk dAb (AlbudAb)) VL: DIQMTQSPSSLSASVGDRVTITCRASQWIGSQLSWYQQKPGKAPKLLIMWRSSLQSGVPSRFSGSGSGTDFTLTISSLQPEDFATYYCAQGLMKPMTFGQGTKVEIKR; 6.39
2. DOM7h-11-3 (other) VL: DIQMTQSPSSLSASVGDRVTITCRASRPIGTTLSWYQQKPGKAPKLLILWNSRLQSGVPSRFSGSGSGTDFTLTISSLQPEDFATYYCAQAGTHPTTFGQGTKVEIKR; 5.00
3. DOM7h-11-15 (other) VL: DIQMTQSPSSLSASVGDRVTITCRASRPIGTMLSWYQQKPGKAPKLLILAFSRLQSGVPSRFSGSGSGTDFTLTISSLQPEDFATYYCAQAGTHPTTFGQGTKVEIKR; 7.70
4. DOM7h-11-12 (other) VL: DIQMTQSPSSLSASVGDRVTITCRASRPIGTMLSWYQQKPGKAPKLLILFGSRLQSGVPSRFSGSGSGTDFTLTISSLQPEDFATYYCAQAGTHPTTFGQGTKVEIKR; 6.70
